assay: in vivo; details: male, Sprague-Dawley, rat, iv, 15 mg/kg, AUClast, male rats, blood, nirmatrelvir 15 mg/kg i.v. plus ritonavir 7 mg/kg i.v.
Quantity name: AUC(0-t) (ng·h/mL)

# Structure string, Assay value
data = [
    ("CC(C)(C)[C@H](NC(=O)C(F)(F)F)C(=O)N1C[C@H]2[C@@H]([C@H]1C(=O)N[C@H](C#N)C[C@@H]1CCNC1=O)C2(C)C", 80500),
]

###

experiment: in vivo; conditions: female, Sprague-Dawley, rat, iv, 15 mg/kg, Cmax, pregnant rats, fetus, nirmatrelvir 15 mg/kg i.v. plus ritonavir 7 mg/kg i.v.

# Structure string, Endpoint unit, Cmax
rows = [
    ("CC(C)(C)[C@H](NC(=O)C(F)(F)F)C(=O)N1C[C@H]2[C@@H]([C@H]1C(=O)N[C@H](C#N)C[C@@H]1CCNC1=O)C2(C)C", "ng/mL", 1720),
]

Where do these numbers come from? They come from paper PMC11702666.
